# Procedure text: Human HepG2 cell viability assay in 384 well format
# Assay type: toxicity, cell-based
# Parameters: dose 125 nL, time 70.5 hour; concentration not given beside the values
# Run conditions: HepG2 cells, read-out: Inhibition
Observed property: cytotoxicity at 70.5 h (%)

{"Compound": "COCC(=O)Nc1ccc(C)cc1-c1nc(C2CC2)no1", "Observed property": "cytotoxicity at 70.5 h", "Observed value": -7.26}
{"Compound": "CC(=O)c1cc(CN2C[C@@H](NS(=O)(=O)N(C)C)[C@H](C(C)C)C2)cs1", "Observed property": "cytotoxicity at 70.5 h", "Observed value": 7.82}
{"Compound": "Cc1nc(-c2ccsc2)ccc1C(=O)N(C)CC(F)(F)F", "Observed property": "cytotoxicity at 70.5 h", "Observed value": -11.2}
{"Compound": "CCS(=O)(=O)N1CC[C@H]2O[C@H](c3nnc(C)o3)CC[C@H]21", "Observed property": "cytotoxicity at 70.5 h", "Observed value": -13.4}
{"Compound": "O=C(Cc1ccccc1)N1CCC2(CCN2Cc2ccc(F)cc2)C1 (stereo not given)", "Observed property": "cytotoxicity at 70.5 h", "Observed value": 7.36}
